test system: CCRF-CEM leukemia; test: NCI tumour cell line growth inhibition, 48 h
I'd appreciate it if you could supply TGI values for the items below.
Answers are plain numbers, in µM.

CN(C)CC(C)(C)C(/C=C/c1ccccc1)=N\Nc1ccccc1    16.2

// next item, TGI requested
Qu. For the compound CC1C2(C)OC(=N)C(C#N)(C(c3ccco3)O2)C1(C#N)C#N (centres undefined) , give its reported TGI.
Ans. 84.4

====

test system: MOLT-4 leukemia; test: NCI tumour cell line growth inhibition, 48 h
I'd appreciate it if you could supply TGI values for the items below.

CCCCCCCCCCCCCCCCOC(=O)c1c(C)[nH]c(/C=C2\N=C(c3ccc[nH]3)C=C2OC)c1C    > 100 µM
NC(CCCNc1cccc(O)c1)C(=O)O (stereo not given)    > 100 µM

Below are some compounds; for each one, tell me its TGI.
1. O=C1SC(c2ccccc2)(c2ccccc2)c2ccccc21
2. O=C1CSC(=S)N1Cc1cccnc1

Ans.
1: > 100 µM; 2: > 100 µM

Qu. For the compound COc1ccc(N=Nc2c(C)c(C#N)c(=S)n(C3OC(COC(C)=O)C(OC(C)=O)C(OC(C)=O)C3OC(C)=O)c2-c2ccccc2)cc1 (stereo not given) , give its reported TGI.
Ans. 47.9 µM

====

test system: MDA-MB-435; assay: NCI tumour cell line growth inhibition, 48 h
MEASURE_NAME: log10 of TGI (log10 of the value in µM)
Would you kindly interpret these values as log10 of TGI expressed in µM?

c1ccc2c(c1)CCN1CCc3c([nH]c4ccccc34)C21 (stereo not given)    1.88

Below are some compounds; for each one, tell me its log10 of TGI.
1. N#Cc1c(-c2ccc(Cl)cc2)c(-c2ccc(Cl)cc2)nn(CCOC(=O)CCC(=O)O)c1=O
2. Cc1cc(C)nc(NS(=O)(=O)c2ccc(NNC(=O)c3cccc4c(NNc5ccc(S(=O)(=O)Nc6nc(C)cc(C)n6)cc5)c5ccccc5nc34)cc2)n1
3. N#CC(C#N)=Cc1ccc(C=C2SC3=C(SCCS3)S2)s1
4. O=C1Nc2ccccc2/C1=C/c1cn(C(=O)c2c(Cl)cccc2Cl)c2ccccc12
5. COc1ccc(Cn2cnc3cc(C(=O)Nc4cccc5ccccc45)ccc32)c(OC)c1

Ans.
-0.71
1.60
0.87
0.85
-1.45

Below are some compounds; for each one, tell me its log10 of TGI.
1. O=C1Nc2ccccc2/C1=C/c1ccccc1
2. Cc1ccc(NSc2ccccc2[N+](=O)[O-])cc1
3. CC(=O)O[C@H]1[C@@H](OC2CCCC2(c2ccccc2)c2ccccc2)O[N+]([O-])=C[C@@]12COCc1cc3c(cc12)OCO3 (stereo not given in full)
4. CC(=O)Nc1ccc(S(=O)(=O)[N-]C2C(=O)c3ccccc3C(=O)C2[n+]2ccccc2)cc1 (stereo not given)
5. CCN(CC)CCCNc1nc2ccccc2c2c(=O)c3cc(Cl)ccc3sc12
6. COC1=CC(=O)c2c(O)ccc(O)c2C1=O
7. COc1ccc(N=Nc2c(C)c(C#N)c(=S)n(C3OC(COC(C)=O)C(OC(C)=O)C(OC(C)=O)C3OC(C)=O)c2-c2ccccc2)cc1 (stereo not given)

Ans.
1. 1.52
2. -0.77
3. 1.16
4. 1.17
5. 0.56
6. 0.13
7. 1.44

Below are some compounds; for each one, tell me its log10 of TGI.
1. O=C(Nc1ccccc1)Nn1c(-c2cccs2)nc2ccc(I)cc2c1=O
2. Cc1ccc(/C=C/C(=O)c2ccc(N)cc2)c(C)c1
3. C=C(CN(C)C)C(=O)c1cc(C)ccc1C

Ans.
1. 1.64
2. 1.19
3. 1.34

====

system: PC-3 prostate; assay: NCI tumour cell line growth inhibition, 48 h; in the data active = GI50 below about 0.43 µM; inactive = the rest
The reply should name one outcome from True (active), False (inactive)

Answered cases to consult:
NC(N)=N/N=C(/c1ccccc1)c1ccc(Cl)cc1    False
O=C(CC(O)c1ccncc1)c1ccccc1 (configuration not stated)    False
COc1cc(-n2cc(-c3ccc(F)cc3)[nH]c2=S)cc(OC)c1OC    False
O=C(N1CCC(CN=c2cc3n(-c4ccc(Cl)cc4)c4ccccc4nc-3cc2Nc2ccc(Cl)cc2)CC1)N1CC1    False
O=C(Nc1cccc([N+](=O)[O-])c1)c1ccc2ccccc2c1O    False
CCSc1nc(N2CCCCC2)c2cn[nH]c2n1    False

Turning now to a further molecule:
Qu. # outcome recorded in this test, key = CCCCCCCCCCCCCCCCOC(=O)c1c(C)[nH]c(/C=C2\N=C(c3ccc[nH]3)C=C2OC)c1C
Ans. True

====

I'd appreciate it if you could supply TGI values for the items below.
test system: HT29 colon; assay: NCI tumour cell line growth inhibition, 48 h

Cc1ccc(S(=O)(=O)N/N=C/c2oc(-c3ccccc3Cl)c(-c3ccccc3Cl)c2[N+](=O)[O-])cc1    > 100 µM
COc1cccc(C2C(C(=O)O)=C(CO)Oc3cc4c(cc32)OCO4)c1 (stereo unspecified)    > 100 µM

Below are some molecules; for each one, tell me its TGI.
1. c1ccc(SC(Sc2ccccc2)c2ccc3c(c2)OCO3)cc1
2. COc1cc(CNC(=O)[C@H](Cc2ccc(O)cn2)NC(C)=O)cc(OC)c1
3. CC1CC(C)/C(=N/NC(N)=O)C(C(O)CC2CCC(=O)NC2=O)C1 (stereo unspecified)
4. BrCCC[P+](c1ccccc1)(c1ccccc1)c1ccccc1

Ans.
["> 100 µM", "> 100 µM", "> 100 µM", "> 100 µM"]

====

test system: SK-MEL-2 melanoma; test: NCI tumour cell line growth inhibition, 48 h
MEASURE_NAME: GI50

Oc1ccccc1Nc1nc2ccccc2c2occc12    14.1 µM
O=C(CC(O)c1ccncc1)c1ccccc1 (configuration not stated)    21.2 µM
C/C1=C\CC[C@@]2(C)O[C@@H]2C[C@@H]2[C@H](C/C(C)=C/CC1)OC(=O)C21CCN=N1 (some centres not stated)    > 100 µM
O=C(Nc1cccnc1)c1cccc([N+](=O)[O-])c1    > 100 µM
CO/N=C(\COc1ccc2c(c1)oc(=O)c1cc(OC)ccc12)c1cccc(OC)c1    > 100 µM
O=C(Nc1cccc([N+](=O)[O-])c1)c1ccc2ccccc2c1O    3.18 µM
CS(=O)(=O)Nc1cccc(-c2ccc3c(NC(=O)C4CC4)n[nH]c3c2)c1    1.37 µM
O=C(Nc1ccc(Cl)cc1)c1ccc([N+](=O)[O-])o1    2.76 µM
COc1cc2c3c(n(CCCNC(=O)OCC4c5ccccc5-c5ccccc54)c(=O)c2cc1OC)-c1cc2c(cc1C3=O)OCO2    45.5 µM
COc1ccc(/C(=N\O)c2cc(OC)c(OC)c(OC)c2)c(OC)c1N    7.48 µM

Below are some compounds; for each one, tell me its GI50.
1. c1ccc2c(Nc3ccc(Oc4ccc(Nc5c6ccccc6nc6ccccc56)cc4)cc3)c3ccccc3nc2c1
2. O=c1[nH]ccc2nc(-c3ccc(CN4CCC(c5nc(-c6ccccn6)n[nH]5)CC4)cc3)c(-c3ccccc3)cc12

Ans.
1. 3.25 µM
2. 14.7 µM

====

test system: OVCAR-8 ovarian; test: NCI tumour cell line growth inhibition, 48 h
MEASURE_NAME: TGI

O=C(O)/C=C/c1cnc[nH]1    > 500 µM

Below are some molecules; for each one, tell me its TGI.
1. O=c1oc2cc(O)ccc2cc1-c1nc2ccccc2s1
2. COc1ccc(Cn2cnc3cc(C(=O)Nc4cccc5ccccc45)ccc32)c(OC)c1
3. Cc1nc(N)c(N2CCN(Cc3ccccc3)CC2)c(=O)[nH]1

Ans.
1. > 100 µM
2. > 100 µM
3. > 100 µM

Below are some molecules; for each one, tell me its TGI.
1. NC(CCCNc1cccc(O)c1)C(=O)O (configuration not stated)
2. N#CC(C#N)=Cc1ccc(C=C2SC3=C(SCCS3)S2)s1
3. CC(=O)[O-].CC(=O)[O-].O=C(N/N=C/c1cc(Cl)cc(Cl)c1[OH2+])c1ccncc1.[Zn+2]
4. C[N+](C)(C)Cc1c(CC#N)[nH]c2ccccc12

Ans.
> 100 µM
> 100 µM
> 100 µM
> 100 µM

Below are some molecules; for each one, tell me its TGI.
1. CCOP(=O)(OCC)/C(C#N)=C/c1ccc[nH]1
2. c1nc(SSc2ncnc3nc[nH]c23)c2[nH]cnc2n1
3. O[C@@H]1CCCN1Cc1cc2cc3c(cc2c2cc(OCc4ccccc4)ccc12)OCO3
4. CO/N=C(\COc1ccc2c(c1)oc(=O)c1cc(OC)ccc12)c1ccc(F)cc1

Ans.
["> 100 µM", "> 100 µM", "17.6 µM", "> 100 µM"]

====

tested on: SK-MEL-5 melanoma; experiment: NCI tumour cell line growth inhibition, 48 h
MEASURE_NAME: TGI (µM)
Answers are plain numbers, in µM.

Below, 2 molecules whose answers are already recorded.
COc1cc(C2CC(c3ccc(Nc4ccnc5cc(Cl)ccc45)cc3)=NN2C=O)cc(OC)c1OC (stereo not given)    6.28
Cn1cnc([N+](=O)[O-])c1Sc1nc2cccnc2s1    35.7

// next item, TGI requested
Qu. For the molecule Nc1ccc(C(=O)NN2C(=O)C(Cl)C2c2ccc([N+](=O)[O-])cc2)cc1 (stereo not given) , give its reported TGI.
Ans. 28.8

Every entry's value here was drawn from PubChem BioAssay (NCI).
